Target: GLP-1 receptor
Assay: cell-based or functional assay
Ends that are not written are not given here.
QUANTITY_NAME: GLP-1 Receptor Activation

{"BINDER": "HVEGTFTSDVSSYLEGQAAKEFIAWLKVGRG [Val^8-Lys^33-Val^34-GLP-1(7-37)OH]", "MEASURED_RESULT": "0.08 fold of GLP-1(7-37)OH"}
{"BINDER": "HVEGTFTSDVSSYLEKQAAKEFIAWLVKGR-NH2 [Val^8-Lys^22-GLP-1(7-36)NH2]", "MEASURED_RESULT": "0.53 fold of GLP-1(7-37)OH"}
{"BINDER": "HVEGTFTSDVSSYLEAQAAKEFIAWLVKGRG [Val^8-Ala^22-GLP-1(7-37)OH]", "MEASURED_RESULT": "0.56 fold of GLP-1(7-37)OH"}
{"BINDER": "HVEGTFTSDVSSYLEEKAAKEFIAWLVKGRG [Val^8-Glu^22-Lys^23-GLP-1(7-37)OH]", "MEASURED_RESULT": "1.43 fold of GLP-1(7-37)OH"}
{"BINDER": "HVEGTFTSDVSSYLEGQAAKEFIAWLVKPRG [Val^8-Pro^35-GLP-1(7-37)OH]", "MEASURED_RESULT": "0.094 fold of GLP-1(7-37)OH"}

For each of the binders below, state GLP-1 Receptor Activation.
1. HVEGTFTSDVSSYLEPQAAKEFIAWLVKGRG [Val^8-Pro^22-GLP-1(7-37)OH]
2. HVEGTFTSDVSSYLEGKAAKEFIAWLVKGRG [Val^8-Lys^23-GLP-1(7-37)OH]
3. HVEGTFTSDVSSYLEGQAAKEFIHWLVKGRG [Val^8-His^30-GLP-1(7-37)OH]
4. HVEGTFTSDVSSYLEGQAAKEFIAWLVKGGP-NH2 [Val^8-Gly^36-Pro^37-GLP-1(7-37)NH2]
5. HAEGTFTSDVSSYLEQQAAKEFIAWLVKGRG [Gln^22-GLP-1(7-37)OH]
6. HVEGTFTSDASSYLEGQAAKEFIAWLVKGRG [Val^8-Ala^16-GLP-1(7-37)OH]
7. HVEGTYTSDVSSYLEGQAAKEFIAWLVKGRG [Val^8-Tyr^12-GLP-1(7-37)OH]

result:
1. 0.01 fold of GLP-1(7-37)OH
2. 0.18 fold of GLP-1(7-37)OH
3. 0.19 fold of GLP-1(7-37)OH
4. 0.53 fold of GLP-1(7-37)OH
5. 0.42 fold of GLP-1(7-37)OH
6. 0.112 fold of GLP-1(7-37)OH
7. 0.81 fold of GLP-1(7-37)OH

For each of the binders below, state GLP-1 Receptor Activation.
1. HVEGKFTSDVSSYLEGQAAKEFIAWLVKGRG [Val^8-Lys^11-GLP-1(7-37)OH]
2. HVEGTFTSDVSSYLEGQAAKEFIAWLVGKRG [Val^8-Gly^34-Lys^35-GLP-1(7-37)OH]
3. HGEGHFTSDVSSYLEGQAAKEFIAWLVKGRG [Gly^8-His^11-GLP-1(7-37)OH]
4. HVEGTFTSDVSSYLEGQHAKEFIAWLVKGRG [Val^8-His^24-GLP-1(7-37)OH]
5. HVEGTFTSDVSSYLEGQAAHEFIAWLVKGRG [Val^8-His^26-GLP-1(7-37)OH]
6. HVEGAFTSDVSSYLEGQAAKEFIAWLVKGRG [Val^8-Ala^11-GLP-1(7-37)OH]
7. HVEGTFTSDVSSYLEGQAAEEFIAWLVKGRG [Val^8-Glu^26-GLP-1(7-37)OH]
8. HVEGTFTSDVSSYLEGQAAKEFIEWLVKGRG [Val^8-Glu^30-GLP-1(7-37)OH]

result:
0.001 fold of GLP-1(7-37)OH
0.34 fold of GLP-1(7-37)OH
0.282 fold of GLP-1(7-37)OH
0.007 fold of GLP-1(7-37)OH
1.6 fold of GLP-1(7-37)OH
0.021 fold of GLP-1(7-37)OH
1.5 fold of GLP-1(7-37)OH
0.29 fold of GLP-1(7-37)OH

For each of the binders below, state GLP-1 Receptor Activation.
1. HVEGTFTSDVSSYLEGQAAKEFIDWLVKGRG [Val^8-Asp^30-GLP-1(7-37)OH]
2. HVEGTFTSDVSSYLEGQAAKEFIAWLVKERG [Val^8-Glu^35-GLP-1(7-37)OH]
3. HVEGTFTSDVSSYLEGQAAKEFIAWLGKGRG [Val^8-Gly^33-GLP-1(7-37)OH]
4. HVEGTFTSDVSSYLEKQAAKEFIAWLVKGRG [Val^8-Lys^22-GLP-1(7-37)OH]
5. HVEGTFTSDVSSYLEGQAAKEFIAWLVKGRH [Val^8-His^37-GLP-1(7-37)OH]
6. HVEGTFTSDVSSYLEGQAAKEFIAWLAKGRG [Val^8-Ala^33-GLP-1(7-37)OH]

result:
0.15 fold of GLP-1(7-37)OH
0.15 fold of GLP-1(7-37)OH
0.01 fold of GLP-1(7-37)OH
0.58 fold of GLP-1(7-37)OH
0.33 fold of GLP-1(7-37)OH
0.1 fold of GLP-1(7-37)OH
